Source listed as patent US6913917B2.

// reported kcat/ko for each item listed
# assay notes: Hydrolysis of 3H-cocaine by Mab's (kinetic measurements)
# condition context: rate acceleration over spontaneous rate (kcat/kuncat)
Form: value (number only, do not type unit).

Reference set, count: 3
molecule: Mab 8G4G: anti-cocaine catalytic monoclonal antibody elicited by TSA 3 (antibody, mouse) heavy: VQLLESGAELVKPGASVELSCRTSGYTFTTYYIYWVKQRPGQGLEWIGGMNPGNGVTYFNEKFKNRATLTVDRSSSIAYMQLSSLTSEDSAVYYCTRVGNSLLTGAEGLWSLSLQ light: TRAGETVTLTCRSSSGTITANNYGSWVQEKPDHLFTGLIGVSNNRGPGVPARFSGSLIGDKAVLTITGGQTEDEAIYFCALWNSNHFVFGGGTKLTVLGQ
kcat/ko: 5500
//
molecule: Mab 9A3: anti-cocaine catalytic monoclonal antibody elicited by TSA 1 (antibody, V domains shown, mouse) VH: SGPELVKPGASVKLSCKASGYPFTDYNMYWVKQSHGKSLEWIGYIDPSNGGIFYNQKFKGRATLTVDKSSNTAFMHLNSLTSEDSAVYYCARGGGLFAYWGQGTLVTVSE VL: TWPGETVTLTCRSSTGTITTSNYANWVQEKPDHLFSGLIGINNNRPPGVPARFSGSLIGDKAVLTITGAQTEDEAIYFCALWYSNHWVFGGGTKLTVLG
kcat/ko: 140
//
molecule: Mab 2A10: anti-cocaine catalytic monoclonal antibody elicited by TSA 1 (antibody, mouse) heavy: ELVKPSQSLSLTCTVTGYSITSDYAWNWIRQFPGNRLEWMGYIRYSGITRYNPSLKSRISITRDTSKNKFFLQLNSVTTEDTATYYCVRIHYYGYGNWGQGTTLTGLP light: DMVMTQDELSNPVTSGESVSISCRSSKSLLYEDGKTYLNWFLQRPGQSPHLLIYLMSTRASGVSDRFSGSGSGTDFTLEISRVKAEDVGAYYCQQFVEYPFTFGSGTKLEIRR
kcat/ko: 420

// below: kcat/ko requested for another molecule
Exercise: I would be grateful if you could share the reported kcat/ko for Mab 8G4E: anti-cocaine catalytic monoclonal antibody elicited by TSA 3 (antibody, V domains shown, mouse) VH: VQLLESGAELVMPGASVKMSCKASGYTFTDHWMHWVKQRPGQGLEWIGTIDLSDTYTGYNQNFKGRATLTLDESSNTAYMQLSSLTSEDSAVYYCSRRGFDYWGQGTTLTVSS VL: ELVMTQSPLTLSVTIGQPASISCKSSQSLLYSDGKTYLNWFFQRPGQSPKRLIYLVSKLDSGVPDRFTGSGSGKDFTLKISRVEAEDLGLYYCVQGYTFPLTFGAGTKLELKR .
Solution: 1100
